Exercise: state measured viability, T/C for each of the molecules provided.
# System: 855422-203-R-J1-PDC complex spheroid viability
# METHOD: Anticancer human tumor 855422-203-R-J1-PDC patient-derived bladder carcinoma cell line growth inhibition [POLQ]
# COND: second compound 3.16 µM; first compound 1 µM; hits give low values
Give bare numbers, in %.

Quick one: give me viability, T/C for each item below, same order please.
1. COc1cccc(OCCCN)c1-c1cc(Nc2cnc(C#N)cn2)n[nH]1 + COC1C(OC(N)=O)C(O)C(Oc2ccc3c(O)c(NC(=O)c4ccc(O)c(CC=C(C)C)c4)c(=O)oc3c2C)OC1(C)C
2. CNCc1ccc(-c2[nH]c3cc(F)cc4c3c2CCNC4=O)cc1 + COC1C(OC(N)=O)C(O)C(Oc2ccc3c(O)c(NC(=O)c4ccc(O)c(CC=C(C)C)c4)c(=O)oc3c2C)OC1(C)C
3. COc1cc2cc(C(=O)CCC(=O)O)sc2cc1OC + Nc1ccc(C#CCN(C(=O)Cc2ncc(C(F)(F)F)cc2C(F)(F)F)c2ccc(F)cc2)nn1
4. CCc1cc2c(N3CCc4c(cc(Cn5ccnc5)cc4-c4cn(C)nc4C(F)(F)F)C3=O)ccnc2c(OC)n1 + COC1C(OC(N)=O)C(O)C(Oc2ccc3c(O)c(NC(=O)c4ccc(O)c(CC=C(C)C)c4)c(=O)oc3c2C)OC1(C)C
5. CC1COCCN1c1cc(C2(S(C)(=N)=O)CC2)nc(-c2ccnc3[nH]ccc23)n1 (stereo not given) + COC1C(OC(N)=O)C(O)C(Oc2ccc3c(O)c(NC(=O)c4ccc(O)c(CC=C(C)C)c4)c(=O)oc3c2C)OC1(C)C

Data returned:
1. 8.32
2. 109
3. 97.5
4. 67.3
5. 112

* * *

# Tested on: 855422-203-R-J1-PDC complex spheroid viability
# METHOD: Anticancer human tumor 855422-203-R-J1-PDC cell line growth inhibition [POLQ]; active means viability on the fitted dose curve at most 10% of control; inactive means the rest;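 also: spheroids exposed to compounds for seven days before readout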
# COND: second compound 0.0316 µM; first compound 10 µM
Pick one: Y for active, N for inactive

Data request: Any idea what this test logged for CCc1cc2c(N3CCc4c(cc(Cn5ccnc5)cc4-c4cn(C)nc4C(F)(F)F)C3=O)ccnc2c(OC)n1 + Nc1ccc(C#CCN(C(=O)Cc2ncc(C(F)(F)F)cc2C(F)(F)F)c2ccc(F)cc2)nn1 ?
Data returned: N

Data request: Now try COc1cccc2c1C(=O)c1c(O)c3c(c(O)c1C2=O)CC(O)(C(=O)CO)CC3OC1CC(N)C(O)C(C)O1 (stereo not drawn) + Nc1ccc(C#CCN(C(=O)Cc2ncc(C(F)(F)F)cc2C(F)(F)F)c2ccc(F)cc2)nn1 .
Data returned: Y

Data request: Moving on to CCc1cc2c(N3CCc4c(cc(Cn5ccnc5)cc4-c4cn(C)nc4C(F)(F)F)C3=O)cc(C)nc2c(OC)n1 + COC1C(OC(N)=O)C(O)C(Oc2ccc3c(O)c(NC(=O)c4ccc(O)c(CC=C(C)C)c4)c(=O)oc3c2C)OC1(C)C
Data returned: N

* * *

Would you mind telling me the reported viability, T/C of each entry?
# System: 855422-203-R-J1-PDC complex spheroid viability
# METHOD: Anticancer human tumor 855422-203-R-J1-PDC cell line growth inhibition [POLQ];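 also: spheroids exposed to compounds for seven days before readout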
# COND: second compound 0.0316 µM; first compound 0.01 µM; hits give low values

>>> data_value("CCc1c2c(nc3ccc(O)cc13)-c1cc3c(c(=O)n1C2)COC(=O)[C@]3(O)CC + Cc1cccc(N(C)C(=O)C2C(O)CCN2c2nc(C)cc(C(F)(F)F)c2C#N)c1")
"9.87%"

# batch size: 2; output viability, T/C per entry
1. COc1cccc(OCCCN)c1-c1cc(Nc2cnc(C#N)cn2)n[nH]1 + Nc1ccc(C#CCN(C(=O)Cc2ncc(C(F)(F)F)cc2C(F)(F)F)c2ccc(F)cc2)nn1
2. Cn1ncnc1[C@H]1c2n[nH]c(=O)c3cc(F)cc(c23)N[C@@H]1c1ccc(F)cc1 + Nc1ccc(C#CCN(C(=O)Cc2ncc(C(F)(F)F)cc2C(F)(F)F)c2ccc(F)cc2)nn1

Data returned:
["197%", "82%"]

* * *

# System: 855422-203-R-J1-PDC complex spheroid viability
# METHOD: Anticancer human tumor 855422-203-R-J1-PDC cell line growth inhibition [POLQ];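 also: spheroids exposed to compounds for seven days before readout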
# COND: second compound 10 µM; first compound 1 µM; hits give low values
We label by threshold. Values of viability, T/C strictly beneath 20% are fulfilled. Values of 20% and up are not fulfilled.

// known answers, use as guide
>>> group("CCc1c2c(nc3ccc(O)cc13)-c1cc3c(c(=O)n1C2)COC(=O)[C@]3(O)CC + COC1C(OC(N)=O)C(O)C(Oc2ccc3c(O)c(NC(=O)c4ccc(O)c(CC=C(C)C)c4)c(=O)oc3c2C)OC1(C)C")
"fulfilled"
>>> group("CC1COCCN1c1cc(C2(S(C)(=N)=O)CC2)nc(-c2ccnc3[nH]ccc23)n1 (stereo not given) + COC1C(OC(N)=O)C(O)C(Oc2ccc3c(O)c(NC(=O)c4ccc(O)c(CC=C(C)C)c4)c(=O)oc3c2C)OC1(C)C")
"not fulfilled"
>>> group("C=CCn1c(=O)c2cnc(Nc3ccc(N4CCN(C)CC4)cc3)nc2n1-c1cccc(C(C)(C)O)n1 + Cc1cccc(N(C)C(=O)C2C(O)CCN2c2nc(C)cc(C(F)(F)F)c2C#N)c1")
"not fulfilled"
>>> group("COc1cccc2c1C(=O)c1c(O)c3c(c(O)c1C2=O)CC(O)(C(=O)CO)CC3OC1CC(N)C(O)C(C)O1 (stereo not given) + COC1C(OC(N)=O)C(O)C(Oc2ccc3c(O)c(NC(=O)c4ccc(O)c(CC=C(C)C)c4)c(=O)oc3c2C)OC1(C)C")
"fulfilled"

Here is another molecule to look at.
Data request: Is it true that viability, T/C reported for Nc1ccn(C2OC(CO)C(O)C2(F)F)c(=O)n1 (stereo not given) + Nc1ccc(C#CCN(C(=O)Cc2ncc(C(F)(F)F)cc2C(F)(F)F)c2ccc(F)cc2)nn1 is less than 20%?
Data returned: not fulfilled

* * *

# Tested on: 855422-203-R-J1-PDC complex spheroid viability
# METHOD: Anticancer human tumor 855422-203-R-J1-PDC cell line growth inhibition [POLQ];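 also: spheroids exposed to compounds for seven days before readout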
# COND: second compound 3.16 µM; first compound 1 µM; hits give low values
Param label: returns true (1) when viability, T/C < 60%, returns false (0) otherwise, including exact equality.

Observe how each entry below is paired with its result.
>>> group("COc1ccc([C@@H](O)c2cc(-c3ncnc4cc(N5CCOCC5)ccc34)c(F)cc2Cl)nn1 + COC1C(OC(N)=O)C(O)C(Oc2ccc3c(O)c(NC(=O)c4ccc(O)c(CC=C(C)C)c4)c(=O)oc3c2C)OC1(C)C")
"false (0)"
>>> group("COc1ccc([C@@H](O)c2cc(-c3ncnc4cc(N5CCOCC5)ccc34)c(F)cc2Cl)nn1 + Cc1cccc(N(C)C(=O)C2C(O)CCN2c2nc(C)cc(C(F)(F)F)c2C#N)c1")
"false (0)"
>>> group("CCc1c2c(nc3ccc(O)cc13)-c1cc3c(c(=O)n1C2)COC(=O)[C@]3(O)CC + Cc1cccc(N(C)C(=O)C2C(O)CCN2c2nc(C)cc(C(F)(F)F)c2C#N)c1")
"true (1)"

Data request: Find out if reported viability, T/C for COc1cc2cc(C(=O)CCC(=O)O)sc2cc1OC + Cc1cccc(N(C)C(=O)C2C(O)CCN2c2nc(C)cc(C(F)(F)F)c2C#N)c1 is less than 60%
Data returned: false (0)

Data request: Try CC1COCCN1c1cc(C2(O)CC3CCC(C2)O3)c2cnn(-c3ccn[nH]3)c2n1 (stereo unspecified) + Cc1cccc(N(C)C(=O)C2C(O)CCN2c2nc(C)cc(C(F)(F)F)c2C#N)c1 next.
Data returned: true (1)

Data request: Here is the next molecule: O=c1[nH]cc(F)c(=O)[nH]1 + Cc1cccc(N(C)C(=O)C2C(O)CCN2c2nc(C)cc(C(F)(F)F)c2C#N)c1
Data returned: true (1)

Data request: Quick one: C=CCn1c(=O)c2cnc(Nc3ccc(N4CCN(C)CC4)cc3)nc2n1-c1cccc(C(C)(C)O)n1 + COC1C(OC(N)=O)C(O)C(Oc2ccc3c(O)c(NC(=O)c4ccc(O)c(CC=C(C)C)c4)c(=O)oc3c2C)OC1(C)C
Data returned: false (0)

Data request: Likewise for COc1cccc(OCCCN)c1-c1cc(Nc2cnc(C#N)cn2)n[nH]1 + Cc1cccc(N(C)C(=O)C2C(O)CCN2c2nc(C)cc(C(F)(F)F)c2C#N)c1 ?
Data returned: true (1)

Data request: Can you check O=C(Nc1ccc(O)c(NS(=O)(=O)c2ccc(F)cc2)c1)c1ccc(-c2ccccc2)cc1 + Cc1cccc(N(C)C(=O)C2C(O)CCN2c2nc(C)cc(C(F)(F)F)c2C#N)c1 next?
Data returned: false (0)

Data request: Would you mind doing CC1COCCN1c1cc(-c2ccnn2C)c2ccnc(-c3ccn[nH]3)c2n1 (stereo unspecified) + Cc1cccc(N(C)C(=O)C2C(O)CCN2c2nc(C)cc(C(F)(F)F)c2C#N)c1 as well?
Data returned: true (1)

Data request: Then what about the molecule C=CC(=O)N1CCN(c2nc(=O)n(-c3c(C)ccnc3C(C)C)c3nc(-c4c(O)cccc4F)c(F)cc23)C(C)C1 (stereo unspecified) + Nc1ccc(C#CCN(C(=O)Cc2ncc(C(F)(F)F)cc2C(F)(F)F)c2ccc(F)cc2)nn1 ?
Data returned: false (0)

Data request: Now the molecule CNCc1ccc(-c2[nH]c3cc(F)cc4c3c2CCNC4=O)cc1 + Cc1cccc(N(C)C(=O)C2C(O)CCN2c2nc(C)cc(C(F)(F)F)c2C#N)c1
Data returned: false (0)

Data request: Can you handle CCCS(=O)(=O)Nc1ccc(F)c(C(=O)c2c[nH]c3ncc(-c4ccc(Cl)cc4)cc23)c1F + COC1C(OC(N)=O)C(O)C(Oc2ccc3c(O)c(NC(=O)c4ccc(O)c(CC=C(C)C)c4)c(=O)oc3c2C)OC1(C)C next?
Data returned: false (0)

Data request: Next molecule up: CCc1c2c(nc3ccc(O)cc13)-c1cc3c(c(=O)n1C2)COC(=O)[C@]3(O)CC + Nc1ccc(C#CCN(C(=O)Cc2ncc(C(F)(F)F)cc2C(F)(F)F)c2ccc(F)cc2)nn1
Data returned: true (1)

Data request: Note, next up: CCc1cc2c(N3CCc4c(cc(Cn5ccnc5)cc4-c4cn(C)nc4C(F)(F)F)C3=O)cc(C)nc2c(OC)n1 + Nc1ccc(C#CCN(C(=O)Cc2ncc(C(F)(F)F)cc2C(F)(F)F)c2ccc(F)cc2)nn1
Data returned: false (0)

Data request: Another: CCc1cc2c(N3CCc4c(cc(Cn5ccnc5)cc4-c4cn(C)nc4C(F)(F)F)C3=O)ccnc2c(OC)n1 + Nc1ccc(C#CCN(C(=O)Cc2ncc(C(F)(F)F)cc2C(F)(F)F)c2ccc(F)cc2)nn1
Data returned: false (0)

Data request: What would you report for CCc1cc2c(N3CCc4c(cc(Cn5ccnc5)cc4-c4cn(C)nc4C(F)(F)F)C3=O)cc(C)nc2c(OC)n1 + COC1C(OC(N)=O)C(O)C(Oc2ccc3c(O)c(NC(=O)c4ccc(O)c(CC=C(C)C)c4)c(=O)oc3c2C)OC1(C)C ?
Data returned: false (0)

Data request: Subsequent entry: O=c1[nH]cc(F)c(=O)[nH]1 + COC1C(OC(N)=O)C(O)C(Oc2ccc3c(O)c(NC(=O)c4ccc(O)c(CC=C(C)C)c4)c(=O)oc3c2C)OC1(C)C
Data returned: true (1)

Data request: # iterate: C=CCn1c(=O)c2cnc(Nc3ccc(N4CCN(C)CC4)cc3)nc2n1-c1cccc(C(C)(C)O)n1 + Cc1cccc(N(C)C(=O)C2C(O)CCN2c2nc(C)cc(C(F)(F)F)c2C#N)c1
Data returned: false (0)

Data request: Consider next the molecule COc1cccc2c1C(=O)c1c(O)c3c(c(O)c1C2=O)CC(O)(C(=O)CO)CC3OC1CC(N)C(O)C(C)O1 (stereo unspecified) + COC1C(OC(N)=O)C(O)C(Oc2ccc3c(O)c(NC(=O)c4ccc(O)c(CC=C(C)C)c4)c(=O)oc3c2C)OC1(C)C in the same way.
Data returned: true (1)

Data request: Also need CC1COCCN1c1cc(-c2ccnn2C)c2ccnc(-c3ccn[nH]3)c2n1 (stereo unspecified) + COC1C(OC(N)=O)C(O)C(Oc2ccc3c(O)c(NC(=O)c4ccc(O)c(CC=C(C)C)c4)c(=O)oc3c2C)OC1(C)C , thanks.
Data returned: true (1)
